Would you kindly list total protein half-life in vivo for each of these sequences?
test: total protein half-life in vivo (active degradation + dilution); higher = more stable protein; conditions: E. coli NCM3722 delta-hslV; growth: N-lim chemostat; doubling time 6 h
Number first, unit second: that is the form wanted.

Task item: Return total protein half-life in vivo for the following sequence: MKKVLLIILLLLVVLGIAAGVGVWKVRHLADSKLLIKEETIFTLKPGTGRLALGEQLYADKIINRPRVFQWLLRIEPDLSHFKAGTYRFTPQMTVREMLKLLESGKEAQFPLRLVEGMRLSDYLKQLREAPYIKHTLSDDKYATVAQALELENPEWIEGWFWPDTWMYTANTTDVALLKRAHKKMVKAVDSAWEGRADGLPYKDKNQLVTMASIIEKETAVASERDKVASVFINRLRIGMRLQTDPTVIYGMGERYNGKLSRADLETPTAYNTYTITGLPPGAIATPGADSLKAAAHPAKTPYLYFVADGKGGHTFNTNLASHNKSVQDYLKVLKEKNAQ
Reply: 6.8 h

Task item: Please indicate total protein half-life in vivo recorded for MEKLRVGIVFGGKSAEHEVSLQSAKNIVDAIDKSRFDVVLLGIDKQGQWHVSDASNYLLNADDPAHIALRPSATSLAQVPGKHEHQLIDAQNGQPLPTVDVIFPIVHGTLGEDGSLQGMLRVANLPFVGSDVLASAACMDKDVTKRLLRDAGLNIAPFITLTRANRHNISFAEVESKLGLPLFVKPANQGSSVGVSKVTSEEQYAIAVDLAFEFDHKVIVEQGIKGREIECAVLGNDNPQASTCGEIVLTSDFYAYDTKYIDEDGAKVVVPAAIAPEINDKIRAIAVQAYQTLGCAGMARVDVFLTPENEVVINEINTLPGFTNISMYPKLWQASGLGYTDLITRLIELALERHAADNALKTTM [P0A6J8]
Reply: 4.95 h

Reference for the values: the supplement of paper PMC11246515
